target_under_test: Beta-adrenergic receptor kinase 1 (Homo sapiens) (UniProt P25098)
Sequence (P25098 whole entry, looked up): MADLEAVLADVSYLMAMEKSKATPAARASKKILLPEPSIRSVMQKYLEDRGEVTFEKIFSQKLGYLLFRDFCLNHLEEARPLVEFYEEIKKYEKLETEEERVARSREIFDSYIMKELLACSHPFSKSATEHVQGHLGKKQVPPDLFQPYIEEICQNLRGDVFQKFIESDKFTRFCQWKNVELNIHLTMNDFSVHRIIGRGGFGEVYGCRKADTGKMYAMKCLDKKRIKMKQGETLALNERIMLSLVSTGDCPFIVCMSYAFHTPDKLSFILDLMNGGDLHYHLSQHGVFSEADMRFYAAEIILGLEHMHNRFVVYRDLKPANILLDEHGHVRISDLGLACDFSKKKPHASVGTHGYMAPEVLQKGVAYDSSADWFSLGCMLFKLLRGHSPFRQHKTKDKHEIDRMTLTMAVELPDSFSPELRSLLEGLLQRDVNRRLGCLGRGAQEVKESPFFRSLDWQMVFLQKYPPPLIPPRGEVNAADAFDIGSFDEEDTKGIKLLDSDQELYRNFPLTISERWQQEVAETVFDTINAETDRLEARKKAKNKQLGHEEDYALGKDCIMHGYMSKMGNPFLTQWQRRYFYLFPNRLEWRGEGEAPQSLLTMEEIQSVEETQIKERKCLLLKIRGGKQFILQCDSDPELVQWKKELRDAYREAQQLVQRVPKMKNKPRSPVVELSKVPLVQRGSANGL
experiment_description: GRK2 binders displacing RNA aptamer, biochemical, validation, human GRK2, bead flow cytometry (AID 488806)
applied_conditions: bead-bound GRK2, FAM-aptamer displacement, at 10 µM, stronger effect = higher value
observable: aptamer binding inhibition (%)
State the answer as a number, implicitly in %.

Field: example entries. Status: answers known.
• COc1ccc(/C=C/C(=O)Nc2ccccc2C(=O)O)cc1OC = 3
• O=C1OC(Nc2ccc3c(c2)OCO3)c2ccccc21 (stereo not drawn) = 3

API: the following record is the query input.
Exam item: Find the measured aptamer binding inhibition: item O=C(NCc1ccc(N2CCCC2=O)cc1)c1ccc(F)cc1 , target or system Beta-adrenergic receptor kinase 1 (Homo sapiens) (UniProt P25098).
Marked response: 3

----------
target_under_test: AP-2 complex subunit beta (Homo sapiens) (UniProt P63010)
Sequence (P63010 whole entry, looked up, one chain of several): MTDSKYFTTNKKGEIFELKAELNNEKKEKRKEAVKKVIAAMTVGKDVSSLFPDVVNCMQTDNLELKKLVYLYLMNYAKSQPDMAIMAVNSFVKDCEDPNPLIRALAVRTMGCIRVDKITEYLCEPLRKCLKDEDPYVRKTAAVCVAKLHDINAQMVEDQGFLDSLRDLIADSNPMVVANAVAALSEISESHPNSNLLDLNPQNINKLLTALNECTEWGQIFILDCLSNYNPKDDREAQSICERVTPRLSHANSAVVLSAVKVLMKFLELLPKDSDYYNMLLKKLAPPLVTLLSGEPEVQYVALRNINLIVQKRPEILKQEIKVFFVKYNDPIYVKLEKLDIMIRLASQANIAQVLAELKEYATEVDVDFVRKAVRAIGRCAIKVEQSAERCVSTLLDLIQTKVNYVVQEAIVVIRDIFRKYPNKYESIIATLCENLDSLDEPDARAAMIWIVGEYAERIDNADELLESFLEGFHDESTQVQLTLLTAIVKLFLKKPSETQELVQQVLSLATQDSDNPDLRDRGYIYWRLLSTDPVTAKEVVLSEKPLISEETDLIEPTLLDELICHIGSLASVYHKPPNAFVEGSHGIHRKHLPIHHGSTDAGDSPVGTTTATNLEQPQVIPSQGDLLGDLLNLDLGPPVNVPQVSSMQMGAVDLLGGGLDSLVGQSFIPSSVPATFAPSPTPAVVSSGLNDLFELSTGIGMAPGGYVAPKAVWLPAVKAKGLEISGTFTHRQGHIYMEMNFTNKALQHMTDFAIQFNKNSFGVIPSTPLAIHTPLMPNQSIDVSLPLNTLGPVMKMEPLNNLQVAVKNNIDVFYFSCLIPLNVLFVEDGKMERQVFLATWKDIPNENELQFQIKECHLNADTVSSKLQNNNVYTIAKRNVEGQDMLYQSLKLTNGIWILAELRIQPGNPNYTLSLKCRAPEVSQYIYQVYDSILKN
experiment_description: beta-arrestin/AP2 interaction blockers – biochemical, validation set, GST-AP2 beads, flow cytometry, pilot screen (AID 504541);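 further: AP2 carries R879A mutation and is captured from E. coli lysate; bead-bound FITC arrestin peptide fluorescence measuring arrestin peptide binding to AP2; 0% = DMSO wells and 100% = excess unlabeled arrestin peptide control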
applied_conditions: FITC arrestin peptide, at 10 µM, AP2 beta2 appendage fragment, R879A mutant
Calls of active or inactive are those of the source.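 How the source made its calls: active means inhibition above 54%, about 3 SD of non-fluorescent compounds; inactive means the rest.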
Your answer must be one of the following: active, inactive

Illustrative cases are given below, each with its answer.
* O=C(O)C1CCN(C(=O)COc2ccc3c4c(c(=O)oc3c2)CCC4)CC1 | inactive
* O=[N+]([O-])c1cccc2cn[nH]c12 | inactive
* CC(=O)N[C@@H](CS)C(=O)O | inactive
* COc1ccc(C(=O)NCCC2=CCCCC2)cc1[N+](=O)[O-] | inactive
* Cc1ccccc1NC(=O)C1(C)Cc2ccccc2C(=O)O1 (centres undefined) | inactive

Exam item: Identify the outcome logged in this assay for the molecule shown: CN(C)CCCN1c2ccccc2Sc2ccc(C(F)(F)F)cc21
Marked response: inactive

Exam item: Another molecule: CC12CCC(C(=O)NCc3ccccn3)(OC1=O)C2(C)C (centres undefined)
Marked response: inactive

Exam item: Please give the result for O=C(NCCc1c[nH]c2ccccc12)OCCSS(=O)(=O)O too.
Marked response: inactive

Exam item: # iterate: Cc1ccc(C2CC(c3cccs3)=NN2C(=O)c2ccco2)o1 (centres undefined)
Marked response: inactive

Exam item: Also CC(C)=CCC/C(C)=C/CC/C(C)=N/O , if possible.
Marked response: inactive

Exam item: One more molecule: COc1cccc(OCc2nnc(-c3cccs3)o2)c1
Marked response: active

Exam item: Another molecule to check: CC(=O)N1CCN(c2ccc(OC[C@H]3CO[C@](Cn4ccnc4)(c4ccc(Cl)cc4Cl)O3)cc2)CC1
Marked response: inactive

Exam item: Field entry: COc1cc(CNCCc2ccccc2F)ccc1OCC(=O)N1CCCCC1
Marked response: inactive

Exam item: Same read-out for CC1=C/C(=N\N=C2\NC(=O)C(CC(=O)Nc3ccccc3F)S2)CC(C)(C)C1 (centres undefined) ?
Marked response: inactive

----------
target_under_test: Integrin beta-1 (Homo sapiens) + Integrin alpha-4 (Homo sapiens) (UniProt P13612+P05556)
Sequence (P05556 whole entry, looked up): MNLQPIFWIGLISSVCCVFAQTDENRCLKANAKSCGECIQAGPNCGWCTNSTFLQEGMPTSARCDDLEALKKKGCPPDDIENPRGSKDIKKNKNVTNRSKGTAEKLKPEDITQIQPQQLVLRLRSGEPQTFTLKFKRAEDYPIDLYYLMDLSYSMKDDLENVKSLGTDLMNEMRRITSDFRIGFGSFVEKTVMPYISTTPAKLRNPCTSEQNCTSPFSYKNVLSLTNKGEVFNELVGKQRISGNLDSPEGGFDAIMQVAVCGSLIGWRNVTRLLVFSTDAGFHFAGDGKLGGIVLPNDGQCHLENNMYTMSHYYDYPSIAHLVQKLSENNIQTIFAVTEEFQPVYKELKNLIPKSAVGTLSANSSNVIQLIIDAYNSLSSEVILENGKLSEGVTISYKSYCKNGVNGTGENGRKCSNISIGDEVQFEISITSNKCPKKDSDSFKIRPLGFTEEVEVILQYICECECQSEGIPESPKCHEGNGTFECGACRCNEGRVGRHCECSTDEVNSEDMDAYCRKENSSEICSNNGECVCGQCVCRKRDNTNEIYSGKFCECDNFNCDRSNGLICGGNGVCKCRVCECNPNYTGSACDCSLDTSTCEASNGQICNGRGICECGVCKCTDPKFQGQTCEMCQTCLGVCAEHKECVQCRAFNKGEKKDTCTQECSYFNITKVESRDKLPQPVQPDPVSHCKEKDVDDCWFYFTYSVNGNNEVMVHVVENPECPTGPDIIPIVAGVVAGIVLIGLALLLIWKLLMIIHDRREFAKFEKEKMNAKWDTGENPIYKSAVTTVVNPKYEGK
Sequence (P13612 whole entry, looked up): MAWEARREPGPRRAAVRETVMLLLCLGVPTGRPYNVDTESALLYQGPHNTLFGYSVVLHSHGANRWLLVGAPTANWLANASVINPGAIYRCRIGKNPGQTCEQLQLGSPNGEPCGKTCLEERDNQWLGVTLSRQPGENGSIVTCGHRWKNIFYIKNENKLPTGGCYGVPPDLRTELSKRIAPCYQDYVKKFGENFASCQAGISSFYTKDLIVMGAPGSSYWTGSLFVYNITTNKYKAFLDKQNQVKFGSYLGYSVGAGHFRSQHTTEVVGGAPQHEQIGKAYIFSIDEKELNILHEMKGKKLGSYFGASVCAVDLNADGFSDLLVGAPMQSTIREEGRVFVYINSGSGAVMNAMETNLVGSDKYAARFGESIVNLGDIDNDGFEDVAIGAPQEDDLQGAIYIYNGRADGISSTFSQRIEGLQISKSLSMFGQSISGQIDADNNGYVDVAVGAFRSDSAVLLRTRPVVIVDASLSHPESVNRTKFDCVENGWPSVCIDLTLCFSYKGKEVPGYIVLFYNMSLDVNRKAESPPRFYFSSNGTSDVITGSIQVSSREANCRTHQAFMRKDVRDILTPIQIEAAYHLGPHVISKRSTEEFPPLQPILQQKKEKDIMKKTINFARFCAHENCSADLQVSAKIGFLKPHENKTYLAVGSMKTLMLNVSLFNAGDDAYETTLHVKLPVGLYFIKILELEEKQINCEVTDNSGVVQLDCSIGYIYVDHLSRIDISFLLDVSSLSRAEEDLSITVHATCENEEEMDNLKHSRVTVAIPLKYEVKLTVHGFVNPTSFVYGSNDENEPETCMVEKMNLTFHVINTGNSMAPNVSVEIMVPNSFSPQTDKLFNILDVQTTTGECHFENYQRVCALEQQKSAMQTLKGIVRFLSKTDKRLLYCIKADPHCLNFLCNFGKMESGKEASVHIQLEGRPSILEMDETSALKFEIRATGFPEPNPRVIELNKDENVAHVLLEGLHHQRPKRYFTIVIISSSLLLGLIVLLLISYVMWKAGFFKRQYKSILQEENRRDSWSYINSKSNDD
experiment_description: alpha4beta1 integrin LIBS antibody binding reduction – U937 cells, HUTS-21 mAb, flow cytometry, validation set, VLA-4 allosteric modulator project, pilot screen (AID 2674);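 further: antibody binding induced by the VLA-4 ligand LDV present at three times its Kd; 0% = LDV ligand with antibody and no compound and 100% = antibody without LDV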
applied_conditions: HUTS-21 LIBS mAb binding, at 6.7 µM, stronger effect = higher value, binding induced by LDV ligand
Calls of active or inactive are those of the source.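 Rule for the calls: active = inhibition above 50%, about 3 SD of the validation set; inactive = the rest.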
observable: inhibition

See these solved cases before continuing.
- CC(=O)Nc1c(I)c(NC(C)=O)c(I)c(C(=O)O)c1I: 10.3% (inactive)
- O=C(O)c1ccc(N2C(=O)/C(=C\c3ccccc3)N=C2c2ccccc2)cc1: -5.11% (inactive)

Proceeding to the next molecule to report its inhibition.
Exam item: For the molecule shown here, CC(N=C(NC#N)Nc1ccncc1)C(C)(C)C (stereo not drawn) , give the reported inhibition.
Marked response: 5.61% (inactive)

----------
target_under_test: GTPase HRas (Homo sapiens)
experiment_description: Ras wt fluorescent GTP loading blockade – biochemical, wildtype, multiplex bead flow cytometry, dose response (AID 1335)
applied_conditions: bead-based flow cytometry, Bodipy-GTP binding to GST-Ras; at 100 µM (top of the series) unless noted
observable: GTP binding, percent of control

- CCc1ccccc1NCc1sc(C(=O)O)cc1C: 87.1%
- COc1cccc2c(SCC(=O)N/N=C/c3ccc(O)c(O)c3)cc(C)nc12: 60.2%
- COc1ccccc1OCCn1cc(C(=O)O)c2ccccc21: 139%
- O=C(O)c1ccc(COc2ccccc2Cl)o1: 96.7%
- O=S(=O)(Cc1ccc(Cl)cc1)c1ccccc1-c1nnc(-c2ccccc2)o1: 196%

Alright, here's another compound for you.
Exam item: Item Cc1c(NC(=O)CCN2C(=O)c3ccccc3C2=O)c(=O)n(-c2ccccc2)n1C has what recorded GTP binding, percent of control?
Marked response: 90.3%

----------
experiment_description: calorie-restriction mimetic ROS inhibitors, yeast – validation compound set, pilot screen (AID 2706);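 further: yeast exposed to compound for one week at 30 degrees C before staining; 100% = mean of all compound wells on the same plate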
applied_conditions: S. cerevisiae aging, superoxide DHE fluorescence; at 10 µM; stronger effect = lower value
Below, each of the compounds is paired with its reported superoxide response (% of plate) value.
Unit % implied. Number only.

The examples below pair each entry with its known result.
• CCN(CCCCOC(=O)c1ccc(OC)c(OC)c1)C(C)Cc1ccc(OC)cc1 (centres undefined) = 103
• CCC1(c2ccccc2)NC(=S)N(c2ccc(C)c(C)c2)N1 (centres undefined) = 107

Exam item: Given the entry O=C(CCCn1c(=O)oc2ccccc21)N1CCN(c2ccc(F)cc2)CC1 , report its measured superoxide response (% of plate).
Marked response: 111

----------
target_under_test: Integrin beta-1 (Homo sapiens) + Integrin alpha-4 (Homo sapiens) (UniProt P13612+P05556)
experiment_description: alpha4beta1 integrin LIBS antibody binding reduction – U937 cells, HUTS-21 mAb, flow cytometry, validation set, VLA-4 allosteric modulator project, pilot screen (AID 2674);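 further: antibody binding induced by the VLA-4 ligand LDV present at three times its Kd; 0% = LDV ligand with antibody and no compound and 100% = antibody without LDV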
applied_conditions: HUTS-21 LIBS mAb binding, at 6.7 µM, stronger effect = higher value, binding induced by LDV ligand
Below, each of the compounds is paired with its reported inhibition value.
Numeric answer only, unit % assumed.

• NC(=O)[C@@H]1[C@@H]2C(=O)N(c3ccc(F)cc3)C(=O)[C@@H]2[C@H]2C=Cc3ccccc3N21 = -80.5

Exam item: What does the record list as inhibition for CCCCCCCC(=O)OCC(O)CO (stereo not drawn) ?
Marked response: 0.58

Exam item: Entry c1cc(-c2ccncc2)ccn1 please
Marked response: 0.94

Exam item: Try the compound COCCNC(=O)CSc1ccc(Cl)cc1
Marked response: -0.45

Exam item: For O=Cc1ccccc1Oc1ccccc1 then?
Marked response: -14.9

Exam item: Now try COc1ccc2[nH]c(CN3CCN(CC(C)C)C(CCO)C3)c(C)c2c1 (stereo not drawn) .
Marked response: -3.16

Exam item: Param item: CC(NC(=O)c1cccnc1)C(=O)O (stereo not drawn)
Marked response: -5.89

Exam item: Okay, and Cc1cccc(OCC(=O)Nc2ccc(C(=O)NCC(C)C)cc2)c1 ?
Marked response: 16.8

Exam item: And CCCn1c(=O)c2[nH]c(C3CCCC3)nc2n(CCC)c1=O ?
Marked response: 0.64

Exam item: Query O=C(NCCc1c[nH]c2ccccc12)c1cccnc1 next
Marked response: 2.3

Exam item: Do the same for O=C1C(=O)N2C(=C1C(=O)N1CCCCCC1)c1ccccc1CC21CCCC1 please
Marked response: 9.13

Exam item: Next compound: COc1cc(C(=O)OCCn2c(=O)c3c(ncn3CCN(C)C)n(C)c2=O)cc(OC)c1OC
Marked response: 4.84

Exam item: Please give the result for Cc1ccc(SCC(=O)Nc2nccs2)cc1 too.
Marked response: 6.4

Exam item: Try O=C(O)C(O)c1ccccc1 (stereo not drawn) next.
Marked response: -6.45

Exam item: One more compound: N/C(=N\OC(=O)c1cccc(Br)c1)c1ccncc1
Marked response: 9.63

Exam item: Next compound up: CCCC(=O)O[C@]1(C(=O)COC(C)=O)CC[C@H]2[C@@H]3C[C@H](F)C4=CC(=O)C=C[C@]4(C)[C@@]3(F)[C@@H](O)C[C@@]21C
Marked response: -13.2

Exam item: Note, next up: Cc1cc(/C=N/O)c(C)n1-c1ccc(Br)cc1
Marked response: -7.79

Exam item: CCCCNc1ccc(C(=O)OCCN(C)C)cc1 ?
Marked response: 5.77

----------
Tested on: anti-desmoglein-3 scFv antibody binding to human DSG3
experiment_description: blockers of pathogenic pemphigus antibody–desmoglein-3 binding – biochemical, validation compound set, bead-based, flow cytometry, pilot screen (AID 588368);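 further: signal is the median channel fluorescence of bead-bound GFP antibody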
applied_conditions: Protein G beads, DSG3-Fc, scFv-GFP binding, at 10 µM, stronger effect = lower value
observable: binding (% of control) (%)
Report the figure in % without appending any unit label.

• CCc1cc(/C(Cc2ccccn2)=N\O)c(O)cc1O = 101
• O=Cc1ccccc1Oc1ccccc1 = 107
• COc1cc2c3c(c1)C(C)CC(C)(C)N3C(=O)C2=O (stereo not drawn) = 105
• COc1cc(C2Nc3ccccc3NC3=C2C(=O)CC(c2ccc(OC)c(OC)c2)C3)ccc1O (stereo not drawn) = 98.4
• Cc1nonc1CN(C)C(=O)c1ccc(OC2CCN(C(=O)c3cccnc3)CC2)cc1 = 103
• Cc1nc2ccccc2n1CC(=O)NC1CCCC1 = 105
• Cc1nc2c(c3c1[nH]c1ccccc13)C(=O)CC(C)(C)C2 = 98.9
• COc1ccc(NS(=O)(=O)c2ccc(N)cc2)nn1 = 102

Exam item: Return reported binding (% of control); argument: CC(=O)c1cc2c(cc1NC(=O)c1ccco1)OCCO2
Marked response: 99.5

Exam item: Likewise for Cc1cn([C@H]2C=C[C@@H](CO)O2)c(=O)[nH]c1=O ?
Marked response: 101

Exam item: And what about the compound CC(=O)OC(CC(=O)O)C[N+](C)(C)C (stereo not drawn) ?
Marked response: 97.1

Exam item: Can you check CCOc1ccc(C(=O)NCC2(c3ccccc3)CCOCC2)cc1 next?
Marked response: 107

This collection of values is drawn from PubChem BioAssay.
